Recorded values, source patent US20230099293A1.

Please respond with reported melting point for every item in the list.
# include the unit after the value

// below: answered compounds
[[record]]
smiles_notation = "Cc1cc(C(F)(F)F)cc(Cl)c1Nc1nccc2c1ncn2CC(=O)N(C)C"
result = "214.14 °C"

[[record]]
smiles_notation = "COc1cc(C)c(Nc2nccc3c2ncn3CC(=O)N(C)C)c(C)c1"
result = "230 °C"

[[record]]
smiles_notation = "Cc1cc(F)cc(F)c1Nc1nccc2c1ncn2CC(C)(F)F"
result = "174.99 °C"

[[record]]
smiles_notation = "Cc1cc(C(F)(F)F)cc(C)c1Nc1nccc2c1ncn2-c1cn(C)cn1"
result = "184.8 °C"


Record Cc1cc2c(cnn2C)c(C)c1Nc1nccc2c1ncn2CC(=O)N(C)C , field melting point: 265.1 °C

###

Please respond with reported pEC50 for every item in the list.
- MEASURED TARGET: hOGA (Homo sapiens)
- Construct: endogenous in cells; host or cells: HEK293 cells inducible for P301L mutant human Tau (isoform 2N4R)
- Sequence (O60502 1-916): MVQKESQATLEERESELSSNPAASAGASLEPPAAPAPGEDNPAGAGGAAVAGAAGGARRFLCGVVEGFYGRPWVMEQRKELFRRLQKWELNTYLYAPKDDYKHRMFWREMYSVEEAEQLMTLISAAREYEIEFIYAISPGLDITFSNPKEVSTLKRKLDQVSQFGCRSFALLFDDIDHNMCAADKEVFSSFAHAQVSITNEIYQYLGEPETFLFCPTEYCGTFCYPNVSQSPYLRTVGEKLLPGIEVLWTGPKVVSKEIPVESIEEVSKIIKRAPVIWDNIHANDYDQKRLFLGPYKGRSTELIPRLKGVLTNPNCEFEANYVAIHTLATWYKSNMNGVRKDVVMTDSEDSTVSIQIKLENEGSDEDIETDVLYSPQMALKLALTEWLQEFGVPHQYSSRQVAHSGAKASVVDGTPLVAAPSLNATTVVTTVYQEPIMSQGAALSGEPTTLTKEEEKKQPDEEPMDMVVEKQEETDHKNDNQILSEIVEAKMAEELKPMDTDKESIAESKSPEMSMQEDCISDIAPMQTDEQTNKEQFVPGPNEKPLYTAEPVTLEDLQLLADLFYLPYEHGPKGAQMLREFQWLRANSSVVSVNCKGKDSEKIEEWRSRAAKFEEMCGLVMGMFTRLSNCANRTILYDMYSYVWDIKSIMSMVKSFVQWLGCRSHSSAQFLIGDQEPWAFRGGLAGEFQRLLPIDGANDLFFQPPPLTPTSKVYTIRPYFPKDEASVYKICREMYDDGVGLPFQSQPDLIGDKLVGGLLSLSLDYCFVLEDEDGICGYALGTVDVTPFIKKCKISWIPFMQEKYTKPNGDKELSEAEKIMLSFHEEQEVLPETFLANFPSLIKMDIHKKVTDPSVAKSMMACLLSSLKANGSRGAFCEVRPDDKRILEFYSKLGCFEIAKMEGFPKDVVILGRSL
- EXPERIMENT DESCRIPTION: OGA cellular assay (ICC detection of O-GlcNAcylated proteins in HEK293 cells inducible for P301L mutant human Tau)
- Type: cell-based
- MEASUREMENT CONTEXT: Cellular hOGA; pEC50, second table; averaged values over several runs, obtained after recalibration of the equipment
One number for each entry, as −log10 of the molar value.

[[record]]
smiles_notation = "Cc1cc(C(F)(F)F)cc(C)c1Nc1ncc(C)c2c1cnn2CC(=O)N(C)C"
measured_target = "hOGA (Homo sapiens)"
attribute_measured = "pEC50"
numeric_value = 6.82


Next:
Record Cc1cc(F)c(F)c(C)c1Nc1nccc2c1ncn2CC(=O)N(C)C , field pEC50: 6.37

###

Please respond with reported pEC50 for every item in the list.
- MEASURED TARGET: hOGA (Homo sapiens)
- Construct: endogenous in cells; host or cells: HEK293 cells inducible for P301L mutant human Tau (isoform 2N4R)
- EXPERIMENT DESCRIPTION: OGA cellular assay (ICC detection of O-GlcNAcylated proteins in HEK293 cells inducible for P301L mutant human Tau)
- Type: cell-based
- MEASUREMENT CONTEXT: Cellular hOGA; pEC50, Table 5; HEK293 P301L Tau cells, 6 hours incubation, O-GlcNAcylation readout
Answers are plain numbers, as −log10 of the molar value.

// below: answered compounds
[[record]]
compound = "Cc1cc(C(F)(F)F)cc(C)c1Nc1nccc2c1ncn2CC(=O)N1CCCC1 [Compound 49]"
measured_target = "hOGA (Homo sapiens)"
attribute_measured = "pEC50"
numeric_value = 6.19

[[record]]
compound = "Cc1cc(C(F)(F)F)cc(C(C)C)c1Nc1nccc2c1ncn2CC(=O)N(C)C [Compound 12]"
measured_target = "hOGA (Homo sapiens)"
attribute_measured = "pEC50"
numeric_value = 7.33

[[record]]
compound = "CN(C)C(=O)Cn1cnc2c(Nc3c(Cl)cc(C(F)(F)F)cc3Cl)nccc21 [Compound 17]"
measured_target = "hOGA (Homo sapiens)"
attribute_measured = "pEC50"
numeric_value = 6.50

[[record]]
compound = "Cc1cc(F)cc(F)c1Nc1nccc2c1ncn2CC(C)(F)F [Compound 3]"
measured_target = "hOGA (Homo sapiens)"
attribute_measured = "pEC50"
numeric_value = 6.13

[[record]]
compound = "CCN(C)C(=O)Cn1cnc2c(Nc3c(C)cc(C(F)(F)F)cc3C)nccc21 [Compound 63]"
measured_target = "hOGA (Homo sapiens)"
attribute_measured = "pEC50"
numeric_value = 7.05

[[record]]
compound = "Cc1cc(C(F)(F)F)cc(C)c1Nc1nccc2c1ncn2CC(N)=O [Compound 5]"
measured_target = "hOGA (Homo sapiens)"
attribute_measured = "pEC50"
numeric_value = 6.35

[[record]]
compound = "Cc1cc(C(F)(F)F)cc(Cl)c1Nc1nccc2c1ncn2CC(C)(F)F [Compound 2]"
measured_target = "hOGA (Homo sapiens)"
attribute_measured = "pEC50"
numeric_value = 7.02

[[record]]
compound = "Cc1ccc(-n2nc(C)c(Nc3nccc4c3ncn4CC(=O)N(C)C)c2C)cc1 [Compound 45]"
measured_target = "hOGA (Homo sapiens)"
attribute_measured = "pEC50"
numeric_value = 6.26

[[record]]
compound = "COc1cccc(-n2nc(C)c(Nc3nccc4c3ncn4CC(=O)N(C)C)c2C)c1 [Compound 36]"
measured_target = "hOGA (Homo sapiens)"
attribute_measured = "pEC50"
numeric_value = 6.22

[[record]]
compound = "Cc1cc(F)cc(C)c1Nc1nccc2c1ncn2CC(=O)N(C)C [Compound 20]"
measured_target = "hOGA (Homo sapiens)"
attribute_measured = "pEC50"
numeric_value = 6.77


Next:
Record Cc1nn(-c2cccc(F)c2)c(C)c1Nc1nccc2c1ncn2CC(=O)N(C)C [Compound 34] , field pEC50: 6.25

###

Please respond with reported Enzymatic hOGA; pIC50 for every item in the list.
- MEASURED TARGET: recombinant human Meningioma Expressed Antigen 5 (MGEA5), also referred to as O-GlcNAcase (OGA) (Homo sapiens, UniProt O60502)
- Construct: Full length OGA enzyme was purchased at OriGene (cat #TP322411); purchased OriGene TP322411
- EXPERIMENT DESCRIPTION: OGA biochemical assay (inhibition of FM-GlcNAc hydrolysis, fluorescence)
- MEASUREMENT CONTEXT: Table 5; full length OGA 2 nM, FM-GlcNAc 100 uM, 6 h at room temperature
Give bare numbers.

[[record]]
molecule = "Cc1cc(C(F)(F)F)cc(C)c1Nc1nccc2c1ncn2C(C)C(=O)N(C)C (centres unmarked) [Compound 72]"
numeric_value = 6.26


Hi, could you look up Enzymatic hOGA; pIC50 for each item in my list?
1. Cc1cc(C(F)(F)F)cc(C)c1Nc1nccc2c1ncn2C1CCCCO1 (centres unmarked) [Compound 73]
2. Cc1cc(C(F)(F)F)cc(C)c1Nc1ncc(C2CC2)c2c1ncn2CC(=O)N(C)C [Compound 75]
3. Cc1cc(C(F)(F)F)cc(C)c1Nc1nccc2c1ncn2CC(=O)N(C)CC(F)(F)F [Compound 77]

stdout:
1. 6.77
2. 6.28
3. 7.23

Hi, could you look up Enzymatic hOGA; pIC50 for each item in my list?
1. Cc1cc(C(F)(F)F)cc(C)c1Nc1nccc2c1ncn2-c1ncc(F)cn1 [Compound 69]
2. COCCn1cnc2c(Nc3c(C)cc(C(F)(F)F)cc3C)nccc21 [Compound 74]

stdout:
1: 6.14; 2: 5.64

###

- MEASURED TARGET: recombinant human Meningioma Expressed Antigen 5 (MGEA5), also referred to as O-GlcNAcase (OGA) (Homo sapiens)
- Construct: Full length OGA enzyme was purchased at OriGene (cat #TP322411); purchased OriGene TP322411
- Sequence (O60502 1-916): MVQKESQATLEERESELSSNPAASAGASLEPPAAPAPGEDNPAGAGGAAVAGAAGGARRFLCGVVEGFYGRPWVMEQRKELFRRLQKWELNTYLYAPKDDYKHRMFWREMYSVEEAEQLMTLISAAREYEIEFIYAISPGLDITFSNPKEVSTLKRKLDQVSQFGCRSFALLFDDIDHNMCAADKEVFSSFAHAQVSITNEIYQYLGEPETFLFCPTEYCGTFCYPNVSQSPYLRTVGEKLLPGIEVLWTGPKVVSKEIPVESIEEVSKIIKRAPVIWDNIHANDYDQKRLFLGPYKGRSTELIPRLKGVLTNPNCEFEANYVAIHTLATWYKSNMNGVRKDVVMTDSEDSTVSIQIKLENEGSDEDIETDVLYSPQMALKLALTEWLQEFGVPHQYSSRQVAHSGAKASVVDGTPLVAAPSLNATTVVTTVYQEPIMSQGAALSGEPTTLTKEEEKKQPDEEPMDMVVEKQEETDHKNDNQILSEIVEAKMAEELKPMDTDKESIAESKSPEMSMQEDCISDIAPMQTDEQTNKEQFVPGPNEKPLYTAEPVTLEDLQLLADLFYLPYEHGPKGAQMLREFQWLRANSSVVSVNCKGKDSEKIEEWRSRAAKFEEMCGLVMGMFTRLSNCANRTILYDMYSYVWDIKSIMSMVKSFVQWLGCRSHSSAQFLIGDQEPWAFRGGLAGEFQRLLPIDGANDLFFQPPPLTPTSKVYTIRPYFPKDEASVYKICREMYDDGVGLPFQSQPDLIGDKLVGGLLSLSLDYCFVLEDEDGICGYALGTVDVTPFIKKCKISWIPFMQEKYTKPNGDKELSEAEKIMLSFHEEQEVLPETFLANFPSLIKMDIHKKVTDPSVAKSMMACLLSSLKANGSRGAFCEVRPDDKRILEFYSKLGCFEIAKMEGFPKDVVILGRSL
- EXPERIMENT DESCRIPTION: OGA biochemical assay (inhibition of FM-GlcNAc hydrolysis, fluorescence)
- MEASUREMENT CONTEXT: Enzymatic hOGA; pIC50, Table 5; full length OGA 2 nM, FM-GlcNAc 100 uM, 6 h at room temperature
ATTRIBUTE MEASURED: IC50 (nM)
Answers are plain numbers, in nM.

// below: answered compounds
[[record]]
smiles_notation = "Cc1cc(C(F)(F)F)cc(C)c1Nc1nccc2c1ncn2CC(=O)N(C)C1CC1"
numeric_value = 8.13

[[record]]
smiles_notation = "Cc1cc(C)cc(-n2nc(C)c(Nc3nccc4c3ncn4CC(=O)N(C)C)c2C)c1"
numeric_value = 14.8

[[record]]
smiles_notation = "COc1ccc(-n2nc(C)c(Nc3nccc4c3ncn4CC(=O)N(C)C)c2C)cc1"
numeric_value = 27.5


Next:
Record CCN(C)C(=O)Cn1cnc2c(Nc3c(C)cc(C(F)(F)F)cc3C)nccc21 , field IC50: 9.33
